# TEST_SYSTEM: T1, ZFP SBS#981 (synthetic, UniProt P08047)
# T1 chain: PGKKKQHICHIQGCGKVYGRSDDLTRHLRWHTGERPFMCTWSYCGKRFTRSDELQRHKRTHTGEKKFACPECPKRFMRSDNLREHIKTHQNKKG
# ASSAY_METHOD_TEXT: EMSA
# PARTICULARS: tags: MBP fusion
READOUT: pKd
Keep it numeric: pKd is minus log10 of the concentration in mol/L.

Inquiry: Entry CAGGCGGCG (dsDNA) DNA 1: CAGGCGGCG DNA 2: CGCCGCCTG has what pKd?
Reply text: 9.43
